- System: U-2932 cells
- assay.procedure: Cell viability, 24 hr IC50
- Format: cell-based
- conditions.used: Homo sapiens, U2932
observable: IC50 (µM)
Output spec: scalar in µM, unitless text.

Problem: Please look up its IC50: O=C(O)c1cc(/N=N/c2ccc(S(=O)(=O)Nc3ccccn3)cc2)ccc1O
Solution: 1000
